system: T-47D breast; test: NCI tumour cell line growth inhibition, 48 h
Each item that follows carries a reported TGI.
// units = µM; emit number, no label

CCN(CC)c1c(-c2ccccc2)n[nH]c1C(=O)OC = 64.8
C[N+](C)(C)CC1CCC(C[N+](C)(C)C)C1=O (stereo not drawn) = 8.28
CN(CCNC(=O)c1c[nH]c2c1ccc1ccccc12)CCNC(=O)c1c[nH]c2c1ccc1ccccc12 = 2.7
CN(C)CCNCc1ccc2c(-c3ccccc3)nc3cc(Cl)c(Cl)cc3n12 = 15.1
CO/N=C(/C)c1cccc(Nc2nc3ccc(Cl)cc3c3[nH]c4ccccc4c23)c1 = 7.28

Given item O=C(O)c1cc2ccccc2c2c3c(ccc12)OCO3 , the value recorded as its TGI is 750

Short answer for N#Cc1cnc2cc(OC[C@@H](O)CO)c(NC(=O)C3CCCC3)cc2c1Nc1ccc(OCc2cccc(F)c2)c(Cl)c1 : TGI was 4.31

Measured TGI, N#CCCN(CCC#N)c1ccc(C(N=Nc2ccc(Cl)cc2)=Nc2ccccc2)cc1 : 27.2

* * *

The compounds listed here are annotated with their TGI.
tested on: SK-OV-3 ovarian; test: NCI tumour cell line growth inhibition, 48 h

O=C1CC(c2c(-c3ccccc3)[nH]c3ccccc23)C(=O)N1c1ccccc1 (configuration not stated) = > 100 µM
CCC1C(C#N)=C(O)NC(O)=C1C#N = > 100 µM
Cc1ccc(S(=O)(=O)NC(=O)NCCc2ccccc2)cc1 = > 100 µM
CCCCCCCCOCC(O)CO (configuration not stated) = > 100 µM
CCC1C(C)C=NN1c1nc(N)nc(C(C#N)=Nc2ccc(N(C)C)cc2)n1 (configuration not stated) = 17.8 µM
O=[N+]([O-])c1cccc(-c2nc(-c3ccc(Cl)cc3Cl)cn2-c2ccccc2)c1 = 29.9 µM

Moving on to another compound below.
// TGI lookup, compound = Cc1ccc(S(=O)(=O)N/N=C(\c2nc3ccc([N+](=O)[O-])cc3[nH]c2=O)C(O)c2ccc([N+](=O)[O-])cc2)cc1 (configuration not stated) , result: > 100 µM

* * *

Recorded TGI values for a group of compounds are listed next.
test system: SW-620 colon; assay: NCI tumour cell line growth inhibition, 48 h

Reference set (5 entries):
CC(C)c1ccc(C2NC(=S)NC3=C2c2ccccc2C3=O)cc1 (stereo not drawn) = > 78.2 µM
O=c1cc(-c2ccccc2)[nH]c2ccc(S)cc12 = > 100 µM
Cc1ccc(C(=O)c2sc3nc4c(cc3c2N)CCCC4)c(C)c1 = > 100 µM
O=C(NCCc1ccccc1)Nc1ccc2cc3ccc(NC(=O)NCCc4ccccc4)cc3nc2c1 = 1.31 µM
CCOC(=O)c1nc2ccccc2nc1NCc1ccc(OC)c(OC)c1 = > 100 µM

Record summary for CC[C@@]1(OC(=O)CN(C)C)C(=O)OCc2c1cc1n(c2=O)Cc2cc3c(N)cccc3nc2-1 : reported TGI = 2.57 µM

What the record says about COc1ccc(/C=C2\C[C@H]3[C@@H]4CC=C5C[C@@H](OC(C)=O)CC[C@]5(C)[C@H]4CC[C@]3(C)\C2=N\O)cc1OC : TGI is > 100 µM

Notebook: COc1cc2c(oc(=O)c3c4occc4cc(OC)c23)c2cccc(OCc3ccccc3)c12 , TGI read as > 100 µM

TGI reading for CO[C@@H]1CCN(c2nccc(Nc3cc4c(C(C)C)ccc(N5CC(CS(C)(=O)=O)[C@H]5C)c4cn3)n2)C[C@@H]1F (stereo partly drawn) : > 100 µM

Sure, the documented TGI for C/C(=N\NC(N)=S)c1ccc(C)c(C)c1 is > 100 µM

For this compound ( O=C(CC(O)(C(F)(F)F)C(F)(F)Cl)CC(O)(C(F)(F)F)C(F)(F)Cl (stereo not drawn) ), measured TGI is > 10 µM

Notebook: COc1ccc(/C(C)=N/NC(=O)CSc2nc3ccccc3c(=O)n2CCc2ccc(S(N)(=O)=O)cc2)cc1 , TGI read as 5.01 µM

// Cc1cc(S(=O)(=O)Nc2nnc3c4ccccc4cnn23)c(S)cc1Cl : TGI value = > 100 µM

The reported TGI of the compound CCOC(=O)Nc1nc2ccccc2[nH]1 was > 100 µM

Lab book: TGI of O=c1[nH]nc(-c2ccccc2)n1/N=C/c1ccco1 noted as > 100 µM

Lookup result for Nc1ccccc1C#C/C=C\C#CC#C/C=C\C#Cc1ccccc1N ; measured TGI: 30.7 µM

Please fill in: TGI reported for COc1ccc(C2C(C#N)=C(S)N(C3OC(COC(C)=O)C(OC(C)=O)C(OC(C)=O)C3OC(C)=O)C(C)=C2C(C)=O)cc1 (stereo not drawn) = > 100 µM

Record summary for CCCCCCCCOCC(O)CO (stereo not drawn) : reported TGI = > 100 µM

So for Cc1c(O)c(OC2OC(CO)C(O)C(O)C2O)cc2c1C=C[C@@H]1[C@@]2(C)C(=O)C[C@]2(C)[C@@H]([C@@](C)(O)C(O)/C=C/C(C)(C)O)[C@H](O)C[C@@]12C (stereo partly drawn) , the logged TGI turned out to be > 100 µM

Lab book: TGI of C1OC1CN1CCN(CC2CO2)CC1 (stereo not drawn) noted as > 100 µM
